system: RAG01 (derived from fibroblasts of a patient diagnosed with SSMD) fibroblasts; assay: CellTiter-Glo concentration response in RAG01 fibroblasts; type: cell-based, human; settings: Homo sapiens, Fibroblast; RAG01 cell line; 72 hours incubation; CellTiter-Glo; percentage effect normalized to vehicle control; 10-point CRC from 10 μM; read-out: EC50
readout kind: pEC50
In simple prose, pEC50 is minus the logarithm base ten of a concentration in moles per litre.

As a guide, the following entries are already answered.
Prompt line: So what does the record say about pEC50 for "CS(=O)(=O)CCNCc1ccc(-c2ccc3ncnc(Nc4ccc(OCc5cccc(F)c5)c(Cl)c4)c3c2)o1" ?
Response line: 5.29

Prompt line: For "O=C1C=Cc2cc(Br)ccc2C1=O" then?
Response line: 5.90

Prompt line: For "COc1cc(C[C@H](C)[C@H](C)Cc2ccc3c(c2)OCO3)ccc1O" then?
Response line: 5.54

Prompt line: For CC(=O)O[C@]1(C(C)=O)CC[C@H]2[C@@H]3CCC4=CC(=O)CCC4=C3[C@@H](c3ccc(N(C)C)cc3)C[C@@]21C [compound 18, ulipristal acetate] then?
Response line: 5.63

Prompt line: For "CN1CCN2c3c(cccc31)[C@@H]1CN(CCCC(=O)c3ccc(F)cc3)CC[C@@H]12" then?
Response line: 6.20

Query compound follows.
Prompt line: So what does the record say about pEC50 for Cc1[nH]c(/C=C2\C(=O)Nc3cc(-c4ccccc4)ccc32)c(C)c1CCC(=O)O [compound 101, su-16f] ?
Response line: 5.86

* * *

Test system: RAG01 (derived from fibroblasts of a patient diagnosed with SSMD) fibroblasts
Experiment: CellTiter-Glo concentration response in RAG01 fibroblasts
Type: cell-based, human
Conditions: Homo sapiens, Fibroblast; RAG01 cell line; 72 hours incubation; CellTiter-Glo; percentage effect normalized to vehicle control; 10-point CRC from 10 μM; read-out: EC50
Experimental: Compounds described herein were tested in three cell lines, RAG01 (derived from fibroblasts of a patient diagnosed with SSMD) fibroblasts, RAG02 (derived from fibroblasts of the patient's parent), and GM09503 (from supplier Corriell) (derived from a healthy donor) to each generate 10-point concentration response curves (CRC). […] The assay was run using the CellTiter-Glo (Promega) following manufacturer's guidelines and luminescent spectrophotometric reading on PHERAstar FSX (BMG Labtech). […]
readout kind: pEC50
In simple prose, pEC50 is minus the logarithm base ten of a concentration in moles per litre.

As a guide, the following entries are already answered.
Prompt line: So what does the record say about pEC50 for "CN1CCN(c2ccc(C(=O)c3c(-c4ccc(O)cc4)sc4cc(O)ccc34)cc2)CC1" ?
Response line: 6.37

Prompt line: For "CC(C)(C=O)Cc1cc(C(C)(C)C)c(O)c(C(C)(C)C)c1" then?
Response line: 6.03

Query compound follows.
Prompt line: So what does the record say about pEC50 for "CC(C)(C)CC(C)(C)c1ccc(O)c(Cc2ccc(Cl)cc2Cl)c1" ?
Response line: 5.65
